Tested on: SW-620 colon
Test: NCI-60 one-dose screen, 48 h
Recorded Conditions: 10 µM unless noted
About 83,000 compounds went through this panel and 20% of them were active in at least one assay; those are over-represented in the sample as a whole. Calls of active or inactive are those of the source. How the source made its calls: active means growth percent below 10; inactive means the rest.
Write down one outcome, taken from True = active, False = inactive

NC(=N\N=C/c1ccc(Cl)cc1Cl)/C(N)=N\N=C/c1ccc(Cl)cc1Cl = False
CC(C)(C)[C@H](OCc1cn([C@H]2C[C@@H](O)[C@@H](CO)O2)c(=O)[nH]c1=O)c1ccc(C#Cc2ccccc2)cc1[N+](=O)[O-] = False
Oc1ccc(C2OCCO2)c2cccnc12 = False
COc1cccc(CNc2nnc(C)c(C)n2)c1O = False
CNC1=C([N+](=O)[O-])C(c2ccc(OC)cc2)C(C#N)=C(c2ccc[nH]2)O1 (stereo not drawn) = False
COc1cc2ncnc(Nc3ccc(S(=O)(=O)Nc4cc(C)on4)cc3)c2cc1OCCCN1CCOCC1 = False
CCOC(=O)c1c(N)sc2cc(O)ccc12 = False
C=C1C(=O)O[C@H]2[C@H]1CC/C(CNC(=O)/C=C/c1cc(OC)c(OC)c(OC)c1)=C\CC[C@@]1(C)O[C@@H]21 = True

# ---- query compound ----
Enquiry: Hi, sorry to bother you, what did the test record for O=C1C(Nc2ccc(Br)cc2)=C(I)C(=O)c2ncccc21 ?
Return: True
